Cited source: patent US20120225828A1

target: human melanocortin-1 receptor hMCR-1 expressed by the human melanoma cell line HBL (human, UniProt Q01726 1-317); assay: cell-based or functional assay
Sequence (Q01726 whole entry): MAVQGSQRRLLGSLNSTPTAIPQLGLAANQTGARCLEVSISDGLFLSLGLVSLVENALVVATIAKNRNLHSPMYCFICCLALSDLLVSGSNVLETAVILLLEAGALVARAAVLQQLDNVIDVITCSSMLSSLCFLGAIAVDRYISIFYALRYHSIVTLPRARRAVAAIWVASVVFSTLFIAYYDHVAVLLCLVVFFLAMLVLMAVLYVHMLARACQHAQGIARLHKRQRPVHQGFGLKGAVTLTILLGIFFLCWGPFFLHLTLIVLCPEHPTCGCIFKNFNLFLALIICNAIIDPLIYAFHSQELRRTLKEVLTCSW
Bridge positions count the residues as written; N and C are the ends. Square brackets hold non-standard residues; d marks the D form. dPhe(4-Me) = Cc1ccc(C[C@@H](N)C(=O)O)cc1; Nle = CCCC[C@H](N)C(=O)O; Orn = NCCC[C@H](N)C(=O)O; Dab = NCC[C@H](N)C(=O)O; Dap = NC[C@H](N)C(=O)O
Below, each entry is listed with its recorded MC-1 EC50 (average; cAMP HBL).
API: value field is a number in nM; no unit string.

Illustrative cases are given below, each with its answer.
>  <binder>
Ac-[Nle]EH[dF]R[Dab]K-NH2 (lactam 2-6; SMILES CCCC[C@H](NC(C)=O)C(=O)N[C@H]1CCC(=O)NCC[C@@H](C(=O)N[C@@H](CCCCN)C(N)=O)NC(=O)[C@H](CCCNC(=N)N)NC(=O)[C@@H](Cc2ccccc2)NC(=O)[C@H](Cc2c[nH]cn2)NC1=O) [Ac-Nle-cyclo(Glu-His-D-Phe-Arg-Dab)-Lys-NH2 (SEQ ID NO: 55)]

>  <dataValue>
0.175

$$$$
>  <binder>
Ac-[Nle]EH[dF]G[Dab]W-NH2 (lactam 2-6; SMILES CCCC[C@H](NC(C)=O)C(=O)N[C@H]1CCC(=O)NCC[C@@H](C(=O)N[C@@H](Cc2c[nH]c3ccccc23)C(N)=O)NC(=O)CNC(=O)[C@@H](Cc2ccccc2)NC(=O)[C@H](Cc2c[nH]cn2)NC1=O) [Ac-Nle-cyclo(Glu-His-D-Phe-Gly-Dab)-Trp-NH2 (SEQ ID NO: 50)]

>  <dataValue>
4

$$$$
>  <binder>
Ac-[Nle]EH[dF]R[Dab]A-NH2 (lactam 2-6; SMILES CCCC[C@H](NC(C)=O)C(=O)N[C@H]1CCC(=O)NCC[C@@H](C(=O)N[C@@H](C)C(N)=O)NC(=O)[C@H](CCCNC(=N)N)NC(=O)[C@@H](Cc2ccccc2)NC(=O)[C@H](Cc2c[nH]cn2)NC1=O) [Ac-Nle-cyclo(Glu-His-D-Phe-Arg-Dab)-Ala-NH2]

>  <dataValue>
0.008

$$$$
>  <binder>
Ac-[Nle]EH[dF]R[Dap]W-OH (lactam 2-6) [Ac-Nle-cyclo(Glu-His-D-Phe-Arg-Dap)-Trp-OH]

>  <dataValue>
0.107

$$$$
>  <binder>
Ac-[Nle]E[Orn][dPhe(4-Me)]R[Dab]-NH2 (lactam 2-6; SMILES CCCC[C@H](NC(C)=O)C(=O)N[C@H]1CCC(=O)NCC[C@@H](C(N)=O)NC(=O)[C@H](CCCNC(=N)N)NC(=O)[C@@H](Cc2ccc(C)cc2)NC(=O)[C@H](CCCN)NC1=O) [Ac-Nle-cyclo(Glu-Orn-D-Phe(4-Me)-Arg-Dab)-NH2]

>  <dataValue>
0.076

$$$$

I have this binder here, Ac-[Nle]EH[dF]R[Dab]-NH2 (lactam 2-6; SMILES CCCC[C@H](NC(C)=O)C(=O)N[C@H]1CCC(=O)NCC[C@@H](C(N)=O)NC(=O)[C@H](CCCNC(=N)N)NC(=O)[C@@H](Cc2ccccc2)NC(=O)[C@H](Cc2c[nH]cn2)NC1=O) [Ac-Nle-cyclo(Glu-His-D-Phe-Arg-Dab)-NH2] , and I need its recorded MC-1 EC50 (average; cAMP HBL).
0.32

Now try Ac-[Nle]EH[dF]G[Dab]W-NH2 (lactam 2-6; SMILES CCCC[C@H](NC(C)=O)C(=O)N[C@H]1CCC(=O)NCC[C@@H](C(=O)N[C@@H](Cc2c[nH]c3ccccc23)C(N)=O)NC(=O)CNC(=O)[C@@H](Cc2ccccc2)NC(=O)[C@H](Cc2c[nH]cn2)NC1=O) [Ac-Nle-cyclo(Glu-His-D-Phe-Gly-Dab)-Trp-NH2] .
4

Field entry: Ac-[Nle]EP[dF]R[Dab]W-NH2 (lactam 2-6; SMILES CCCC[C@H](NC(C)=O)C(=O)N[C@H]1CCC(=O)NCC[C@@H](C(=O)N[C@@H](Cc2c[nH]c3ccccc23)C(N)=O)NC(=O)[C@H](CCCNC(=N)N)NC(=O)[C@@H](Cc2ccccc2)NC(=O)[C@@H]2CCCN2C1=O) [Ac-Nle-cyclo(Glu-Pro-D-Phe-Arg-Dab)-Trp-NH2]
0.18
